Each entry below lists one item and its recorded screen value value.
B1: KIAA1671 peptide 600-615 (Uncharacterized protein KIAA1671), 16-mer library wild type / MDM2 SWIB (MDM2 SWIB/MDM2 domain, residues 17-125) (parent)
chain 1: TPEDDRSFQTVWATVF
chain 2: SQIPASEQETLVRPKPLLLKLLKSVGAQKDTYTMKEVLFYLGQYIMTKRLYDEKQQHIVYCSNDLLGDLFGVPSFSVKEHRKIYTMIYRNLVVVNQQESSDSGTSVSEN

- Variants of: B1
- experiment-notes: proteomic peptide phage display deep mutational scan (ProP-PD DMS): M13 P8 16-mer library selected against immobilised GST-tagged bait for four days (rounds), NGS of the eluted pools per day and pseudo-replica
- run-conditions: with MDM2 SWIB (MDM2 SWIB/MDM2 domain, residues 17-125); bait immobilised on MaxiSorp plates (10 µg), library pre-cleared on GST, 2 h binding at 4 °C, five washes; one round per day, days 1-4; value from days 2 and 3; keep out of graded; scale: average fractional NGS count over selection days 2 and 3
Form rule: numeric answer, no unit written next to it.

>>> print(df.to_string())
   variant_name  numeric_result
0   chain 1 R6S         0.00021
1   chain 1 D5A        0.000323
2   chain 1 S7P        2.82e-05
3   chain 1 F8W        0.000346
4   chain 1 S7W        0.000517

Let us examine a further case.
Data point: chain 1 Q9D ; screen value = 0
